Cited source: ChEMBL document CHEMBL3885881

Organism: Rattus norvegicus
Experiment: DrugMatrix - Regimen: Daily Repeat
Format: toxicity, organism-based, Sprague-Dawley
Design: regimen Daily Repeat, gender Male, age 6-8 weeks
Conditions: in vivo, po, 0 mg/kg, 120 h, tissue Blood, route oral GAVAGE, dose level Control, time 5 day, […]
Rule: NEUTROPHIL below 8% gives Condition met. Equal to or above 8% gives Condition not met.

Enquiry: Please indicate whether the reported NEUTROPHIL of CCc1ccc(CCOc2ccc(CC3SC(=O)NC3=O)cc2)nc1 (configuration not stated) is strictly below 8%.
Return: Condition not met

Enquiry: Please indicate whether the reported NEUTROPHIL of `CC(=O)Oc1ccccc1C(=O)O` is strictly below 8%.
Return: Condition not met

Enquiry: Please indicate whether the reported NEUTROPHIL of `c1ccoc1` is strictly below 8%.
Return: Condition not met

Enquiry: Please indicate whether the reported NEUTROPHIL of CS(=O)(=O)Nc1ccc([N+](=O)[O-])cc1Oc1ccccc1 [NIMESULIDE] is strictly below 8%.
Return: Condition met

Enquiry: Please indicate whether the reported NEUTROPHIL of `CCCCC(=O)N(Cc1ccc(-c2ccccc2-c2nnn[nH]2)cc1)[C@H](C(=O)O)C(C)C` is strictly below 8%.
Return: Condition met

----------
Hi there, I'd appreciate the recorded ALANINE AMINOTRANSFERASE for every entry that follows.
Species on record: Rattus norvegicus
Assay: DrugMatrix - Regimen: Daily Repeat
Assay type: toxicity, organism-based, Sprague-Dawley
Parameters: regimen Daily Repeat, gender Male, age 6-8 weeks
Settings: in vivo, po, 0 mg/kg, 120 h, tissue Plasma, route oral GAVAGE, dose level Control, time 5 day, vehicle .5 % CMC
Kindly provide the numeric value in u/L only, without the unit symbol.

# ALANINE AMINOTRANSFERASE (compound: `CN(C)CCN(Cc1cccs1)c1ccccn1` ) is 45

# ALANINE AMINOTRANSFERASE (compound: CN1C(=O)CN=C(c2ccccc2)c2cc([N+](=O)[O-])ccc21 [NIMETAZEPAM] ) is 42.17

# ALANINE AMINOTRANSFERASE (compound: COc1cc(OC)c(C(=O)CCCN2CCCC2)c(OC)c1 [BUFLOMEDIL] ) is 45.17

# ALANINE AMINOTRANSFERASE (compound: C[C@@](Cc1ccc(O)c(O)c1)(NN)C(=O)O.O [CARBIDOPA] ) is 46.5

# ALANINE AMINOTRANSFERASE (compound: CN1CCN(C2=Nc3cc(Cl)ccc3Nc3ccccc32)CC1 [CLOZAPINE] ) is 41.83

# ALANINE AMINOTRANSFERASE (compound: `CCOc1nc2cccc(C(=O)O)c2n1Cc1ccc(-c2ccccc2-c2nnn[nH]2)cc1` ) is 49.67

# ALANINE AMINOTRANSFERASE (compound: CCCCC1=NC2(CCCC2)C(=O)N1Cc1ccc(-c2ccccc2-c2nnn[nH]2)cc1 [IRBESARTAN] ) is 42.5

# ALANINE AMINOTRANSFERASE (compound: C#C[C@]1(O)CC[C@H]2[C@@H]3CCC4=CC(=O)CC[C@]4(C)[C@H]3CC[C@@]21C [ETHISTERONE] ) is 38

# ALANINE AMINOTRANSFERASE (compound: CCCNC(=O)NS(=O)(=O)c1ccc(Cl)cc1 [CHLORPROPAMIDE] ) is 41.83

# ALANINE AMINOTRANSFERASE (compound: COc1ccc2c(c1OC)C(=O)O[C@@H]2[C@H]1c2c(cc3c(c2OC)OCO3)CCN1C [NOSCAPINE] ) is 38
